Documented TGI across a set of compounds
system: CCRF-CEM leukemia; assay: NCI tumour cell line growth inhibition, 48 h

compound=Cc1n[nH]c(=O)n1N1C(=O)c2ccccc2C1=O property=TGI value_observed="> 100 µM"
compound=COc1ccc(-c2nnc(CCCCCCCCc3nnc(-c4ccc(OC)cc4)o3)o2)cc1 property=TGI value_observed="> 100 µM"
compound="CN1CCCN(C(c2ccccc2)c2ccc(Br)cc2)CC1 (configuration not stated)" property=TGI value_observed="18.9 µM"
compound="CC1CCC23COC(=O)C2C(O)CCC3C1(C)CC(O)c1ccoc1 (configuration not stated)" property=TGI value_observed="> 100 µM"
compound="CC1(C)OC(=S)N(c2ccccc2)C12C=Cc1cc3ccccc3cc1O2 (configuration not stated)" property=TGI value_observed="> 100 µM"

What measured TGI is associated with COC(=O)C(Cc1nc2ccccc2[nH]c1=O)C(=O)C(=O)Nc1ccc(OC)cc1[N+](=O)[O-] (configuration not stated) on CCRF-CEM leukemia?
> 100 µM

What measured TGI is associated with CN(C(=O)c1cccs1)C(=S)N1CCN(c2ccccc2)CC1 on CCRF-CEM leukemia?
> 100 µM

What measured TGI is associated with CC[C@]12C=CCN3CCC4(c5cc([C@@]6(C(=O)OC)CC7CN(CCc8c6[nH]c6ccccc86)C[C@@H]6CCC[C@H]76)c(OC)cc5N(C)C4[C@](O)(C(=O)OC)C1OC(C)=O)C32 (some centres not stated) on CCRF-CEM leukemia?
> 10 µM

Each recorded value in this set is attributed to PubChem BioAssay (NCI).
